Parameter inhibition at 50 µM: see the listing below.
# Tested System: SARS-CoV-2 3CLpro enzyme (Severe acute respiratory syndrome coronavirus 2)
# Protocol Details: biochemical
# Settings: read-out: inhibition of 3CLpro enzymatic activity; 50 µM drug
Numbered stars: 1 amine (or outer) side, 2 acyl side, 3 side chain; on linkers, the order of the positions; unused ones are H or OH. Bridge positions count the residues as written; N and C are the ends. Square brackets hold non-standard residues; d marks the D form. Peptide text beside a SMILES is read from it. * marks the point of attachment. hTyr(3S-OH,4S-OH,3'-OSO3H) = N[C@H](C(=O)O)[C@H](O)[C@@H](O)c1ccc(O)c(OS(=O)(=O)O)c1; Orn(4R-OH,5R-OH) = O=C([C@H](C[C@@H](O)[C@@H](O)N[*:3])N[*:1])[*:2]; Pro(3S-OH,4S-Me) = C[C@H]1CN[C@H](C(=O)O)[C@H]1O; X1 = CCCCCOc1ccc(-c2cc(-c3ccc(C(=O)*)cc3)no2)cc1; Gln(3R-OH) = NC(=O)C[C@@H](O)[C@H](N)C(=O)O; Hyp = O=C(O)[C@@H]1C[C@@H](O)CN1
Readout: inhibition at 50 µM (%)

1) CC(C)(C)NC(=O)N[C@H](C(=O)N1C[C@H]2[C@@H]([C@H]1C(=O)NC(CC1CCC1)C(=O)C(N)=O)C2(C)C)C(C)(C)C (stereo partly shown) [Boceprevir]; 45
2) CCCCCOc1ccc(-c2cc(-c3ccc(C(=O)N[C@H]4C[C@@H](O)[C@@H](O)NC(=O)[C@@H]5[C@@H](O)[C@@H](C)CN5C(=O)[C@H]([C@H](O)CC(N)=O)NC(=O)[C@H]([C@H](O)[C@@H](O)c5ccc(O)c(OS(=O)(=O)O)c5)NC(=O)[C@@H]5C[C@@H](O)CN5C(=O)[C@H]([C@@H](C)O)NC4=O)cc3)no2)cc1 [Micafungin] (X1-[Orn(4R-OH,5R-OH)]T[Hyp][hTyr(3S-OH,4S-OH,3'-OSO3H)][Gln(3R-OH)][Pro(3S-OH,4S-Me)]; lactam 1-C); 57
3) Cc1cnc(C(=O)N[C@H]2CCCCC/C=C\[C@@H]3C[C@@]3(C(=O)NS(=O)(=O)C3CC3)NC(=O)[C@@H]3C[C@@H](Oc4nc5ccccc5c5ccccc45)CN3C2=O)cn1 [Paritaprevir]; 70
4) CCC[C@@]1(CCc2ccccc2)CC(O)=C([C@H](CC)c2cccc(NS(=O)(=O)c3ccc(C(F)(F)F)cn3)c2)C(=O)O1 [Tipranavir]; 64

----------
# Tested System: SARS-CoV-2 3CLpro enzyme (Severe acute respiratory syndrome coronavirus 2, UniProt P0DTD1)
# Protocol Details: biochemical
# Settings: dose-dependent study, 12.5 uM, individual values; read-out: % activity
Numbered stars: 1 amine (or outer) side, 2 acyl side, 3 side chain; on linkers, the order of the positions; unused ones are H or OH. Bridge positions count the residues as written; N and C are the ends. Square brackets hold non-standard residues; d marks the D form. Peptide text beside a SMILES is read from it. * marks the point of attachment. hTyr(3S-OH,4S-OH,3'-OSO3H) = N[C@H](C(=O)O)[C@H](O)[C@@H](O)c1ccc(O)c(OS(=O)(=O)O)c1; Orn(4R-OH,5R-OH) = O=C([C@H](C[C@@H](O)[C@@H](O)N[*:3])N[*:1])[*:2]; Pro(3S-OH,4S-Me) = C[C@H]1CN[C@H](C(=O)O)[C@H]1O; X1 = CCCCCOc1ccc(-c2cc(-c3ccc(C(=O)*)cc3)no2)cc1; Gln(3R-OH) = NC(=O)C[C@@H](O)[C@H](N)C(=O)O; Hyp = O=C(O)[C@@H]1C[C@@H](O)CN1
Readout: activity at 12.5 µM (%)

1. CCC[C@@]1(CCc2ccccc2)CC(O)=C([C@H](CC)c2cccc(NS(=O)(=O)c3ccc(C(F)(F)F)cn3)c2)C(=O)O1; 107
2. CC(C)(C)NC(=O)N[C@H](C(=O)N1C[C@H]2[C@@H]([C@H]1C(=O)NC(CC1CCC1)C(=O)C(N)=O)C2(C)C)C(C)(C)C (stereo partly shown); 61.2
3. Cc1cnc(C(=O)N[C@H]2CCCCC/C=C\[C@@H]3C[C@@]3(C(=O)NS(=O)(=O)C3CC3)NC(=O)[C@@H]3C[C@@H](Oc4nc5ccccc5c5ccccc45)CN3C2=O)cn1; 102
4. CCCCCOc1ccc(-c2cc(-c3ccc(C(=O)N[C@H]4C[C@@H](O)[C@@H](O)NC(=O)[C@@H]5[C@@H](O)[C@@H](C)CN5C(=O)[C@H]([C@H](O)CC(N)=O)NC(=O)[C@H]([C@H](O)[C@@H](O)c5ccc(O)c(OS(=O)(=O)O)c5)NC(=O)[C@@H]5C[C@@H](O)CN5C(=O)[C@H]([C@@H](C)O)NC4=O)cc3)no2)cc1 [Micafungin] (X1-[Orn(4R-OH,5R-OH)]T[Hyp][hTyr(3S-OH,4S-OH,3'-OSO3H)][Gln(3R-OH)][Pro(3S-OH,4S-Me)]; lactam 1-C); 92.9

----------
# Tested System: SARS-CoV-2 3CLpro enzyme (Severe acute respiratory syndrome coronavirus 2, UniProt P0DTD1)
# Protocol Details: biochemical
# Settings: 50 µM drug, DMSO treated control = 100%, mean of 3 values, data of Figs. 2-4
Numbered stars: 1 amine (or outer) side, 2 acyl side, 3 side chain; on linkers, the order of the positions; unused ones are H or OH. Bridge positions count the residues as written; N and C are the ends. Square brackets hold non-standard residues; d marks the D form. Peptide text beside a SMILES is read from it. * marks the point of attachment. hTyr(3S-OH,4S-OH,3'-OSO3H) = N[C@H](C(=O)O)[C@H](O)[C@@H](O)c1ccc(O)c(OS(=O)(=O)O)c1; Orn(4R-OH,5R-OH) = O=C([C@H](C[C@@H](O)[C@@H](O)N[*:3])N[*:1])[*:2]; Pro(3S-OH,4S-Me) = C[C@H]1CN[C@H](C(=O)O)[C@H]1O; X1 = CCCCCOc1ccc(-c2cc(-c3ccc(C(=O)*)cc3)no2)cc1; Gln(3R-OH) = NC(=O)C[C@@H](O)[C@H](N)C(=O)O; Hyp = O=C(O)[C@@H]1C[C@@H](O)CN1
Class (by percent enzymatic activity, AVG) -- lower range: < 40%; middle range: ≥ 40% and < 80%; upper range: ≥ 80%

1) CC(C)(C)NC(=O)N[C@H](C(=O)N1C[C@H]2[C@@H]([C@H]1C(=O)NC(CC1CCC1)C(=O)C(N)=O)C2(C)C)C(C)(C)C (some centres unmarked); middle range
2) CCCCCOc1ccc(-c2cc(-c3ccc(C(=O)N[C@H]4C[C@@H](O)[C@@H](O)NC(=O)[C@@H]5[C@@H](O)[C@@H](C)CN5C(=O)[C@H]([C@H](O)CC(N)=O)NC(=O)[C@H]([C@H](O)[C@@H](O)c5ccc(O)c(OS(=O)(=O)O)c5)NC(=O)[C@@H]5C[C@@H](O)CN5C(=O)[C@H]([C@@H](C)O)NC4=O)cc3)no2)cc1 [Micafungin] (X1-[Orn(4R-OH,5R-OH)]T[Hyp][hTyr(3S-OH,4S-OH,3'-OSO3H)][Gln(3R-OH)][Pro(3S-OH,4S-Me)]; lactam 1-C); middle range
3) CCN(CCO)CCCC(C)Nc1ccnc2cc(Cl)ccc12 (centres unmarked) [Hydroxychloroquine]; upper range
4) CCOC(=O)c1ccc(OC(=O)CCCCCNC(=N)N)cc1 [Gabexate]; upper range
5) Cc1cnc(C(=O)N[C@H]2CCCCC/C=C\[C@@H]3C[C@@]3(C(=O)NS(=O)(=O)C3CC3)NC(=O)[C@@H]3C[C@@H](Oc4nc5ccccc5c5ccccc45)CN3C2=O)cn1; lower range
6) CCC[C@@]1(CCc2ccccc2)CC(O)=C([C@H](CC)c2cccc(NS(=O)(=O)c3ccc(C(F)(F)F)cn3)c2)C(=O)O1; lower range
7) Cc1c(O)cccc1C(=O)N[C@@H](CSc1ccccc1)[C@H](O)CN1C[C@H]2CCCC[C@H]2C[C@H]1C(=O)NC(C)(C)C; middle range
8) COC(=O)N[C@H](C(=O)N1CCC[C@H]1C(=O)Nc1ccc([C@@H]2CC[C@@H](c3ccc(NC(=O)[C@@H]4CCCN4C(=O)[C@@H](NC(=O)OC)C(C)C)cc3)N2c2ccc(C(C)(C)C)cc2)cc1)C(C)C; lower range
9) CC(C)(C)NC(=O)[C@@H]1C[C@@H]2CCCC[C@@H]2CN1C[C@@H](O)[C@H](Cc1ccccc1)NC(=O)[C@H](CC(N)=O)NC(=O)c1ccc2ccccc2n1; middle range
10) O=C(O)[C@H]1C2CCC(CC2)[C@@H]1Nc1nc(-c2c[nH]c3ncc(F)cc23)ncc1F; upper range
